Would you mind telling me the reported pIC50 of each entry?
- target.of.assay: UniProtKB P04629
- assay.remarks: DiscoverX PathHunter TrkA functional assay (NGF-stimulated U2OS cells)
- Assay type: cell-based
- recorded.conditions: U2OS cells expressing human TrkA-PK, Shc1-EA and p75NTR; compound 1 h, then NGF at ~80% of maximal response for 3 h; luminescence
Please keep in mind that pIC50 is minus log10 of the molar concentration; only the number is needed.

Lookup: Which pIC50 value is on record for CCn1c(Cc2ncc(NC(=O)c3cc(-c4ccn(C)n4)c(C(F)(F)F)cc3F)c(-c3ccccc3)n2)n[nH]c1=O ?
Found: 8.49

Lookup: Also Cn1ccc(-c2cc(C(=O)Nc3ccc(CN4CC5(COC5)C4)nc3-c3ccccc3)c(F)cc2C(F)(F)F)n1 ?
Found: 8.15

Lookup: Also Cn1ccc(-c2cc(C(=O)Nc3cnc(CC(=O)O)nc3-c3ccccc3)c(F)cc2C(F)(F)F)n1 ?
Found: 8.70

Lookup: Also CNC(=O)Cc1ncc(NC(=O)c2cc(-c3ccn(C)n3)c(C(F)(F)F)cc2F)c(-c2ccccc2)n1 ?
Found: 9.12

----------
- target.of.assay: UniProtKB P04629
- assay.remarks: DiscoverX PathHunter TrkA functional assay (NGF-stimulated U2OS cells)
- recorded.conditions: U2OS cells expressing human TrkA-PK, Shc1-EA and p75NTR; compound 1 h, then NGF at ~80% of maximal response for 3 h; luminescence
Would you mind telling me the reported pIC50 of each entry?
Please keep in mind that pIC50 is minus log10 of the molar concentration; only the number is needed.

Lookup: Which pIC50 value is on record for Cn1ccc(-c2cc(C(=O)Nc3cnc(Cc4nnc[nH]4)nc3-c3ccccc3)c(F)cc2C(F)(F)F)n1 ?
Found: 9.60

Lookup: Also Cn1ccc(-c2cc(C(=O)Nc3cnc4c(c3-c3ccccc3)CCN(C(=O)CO)C4)ccc2C(F)(F)F)n1 ?
Found: 7.72

Lookup: Also Cn1ccc(-c2cc(C(=O)Nc3cnc(CCO)nc3-c3ccccc3)ccc2C(F)(F)F)n1 ?
Found: 8.40

Lookup: Also Cn1ccc(-c2cc(C(=O)Nc3ccc(C4CCNC4=O)nc3-c3ccccc3)ccc2C(F)(F)F)n1 (single isomer, unassigned) ?
Found: 8.30

----------
Would you mind telling me the reported pIC50 of each entry?
- target.of.assay: human TrkA receptor (Homo sapiens (Human), UniProt P04629)
- Sequence (P04629 33-796): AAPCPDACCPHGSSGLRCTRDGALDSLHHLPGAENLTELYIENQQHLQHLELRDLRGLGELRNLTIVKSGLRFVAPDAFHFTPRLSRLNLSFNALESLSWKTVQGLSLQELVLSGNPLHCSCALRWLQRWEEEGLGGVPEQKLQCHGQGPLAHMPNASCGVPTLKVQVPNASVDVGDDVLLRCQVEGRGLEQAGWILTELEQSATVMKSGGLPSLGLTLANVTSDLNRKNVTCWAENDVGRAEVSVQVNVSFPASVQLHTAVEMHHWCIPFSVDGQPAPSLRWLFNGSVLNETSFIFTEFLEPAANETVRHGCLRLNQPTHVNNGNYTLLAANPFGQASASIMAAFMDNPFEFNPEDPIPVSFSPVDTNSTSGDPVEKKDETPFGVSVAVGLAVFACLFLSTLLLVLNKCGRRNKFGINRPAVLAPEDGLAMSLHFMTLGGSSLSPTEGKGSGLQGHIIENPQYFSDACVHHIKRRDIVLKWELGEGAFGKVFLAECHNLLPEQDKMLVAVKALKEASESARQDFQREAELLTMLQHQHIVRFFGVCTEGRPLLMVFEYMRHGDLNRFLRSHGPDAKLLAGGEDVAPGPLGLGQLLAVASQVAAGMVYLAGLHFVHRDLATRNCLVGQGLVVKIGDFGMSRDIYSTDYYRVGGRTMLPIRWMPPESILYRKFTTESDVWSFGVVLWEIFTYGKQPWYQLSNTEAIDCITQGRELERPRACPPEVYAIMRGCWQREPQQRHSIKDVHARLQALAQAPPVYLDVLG
- assay.remarks: DiscoverX PathHunter TrkA functional assay (NGF-stimulated U2OS cells)
- recorded.conditions: U2OS cells expressing human TrkA-PK, Shc1-EA and p75NTR; compound 1 h, then NGF at ~80% of maximal response for 3 h; luminescence
Please keep in mind that pIC50 is minus log10 of the molar concentration; only the number is needed.

Lookup: Which pIC50 value is on record for Cn1ccc(-c2cc(C(=O)Nc3cnc(CC(=O)N[C@H]4C[C@@H](O)C4)nc3-c3ccccc3)c(F)cc2C(F)(F)F)n1 [Example 109] ?
Found: 8.59

Lookup: Also CCNC(=O)Cc1ncc(NC(=O)c2cc(-c3ccn(C)n3)c(C(F)(F)F)cc2F)c(-c2ccccc2)n1 [Example 105] ?
Found: 9.28

Lookup: Also O=C(Nc1cc(OCc2ccncc2)cnc1-c1ccccc1)c1cc(-c2ncccn2)c(C(F)(F)F)cc1F [Example 176] ?
Found: 8.20

Lookup: Also Cn1ccc(-c2cc(C(=O)Nc3cnc(C4CCNC4=O)nc3-c3ccccc3)c(F)cc2C(F)(F)F)n1 (single isomer, unassigned) [Example 197] ?
Found: 8.43

Lookup: Also Cc1ncc(NC(=O)c2cc(-c3ccn(C)n3)c(C(F)(F)F)cc2F)c(-c2ccccc2CCN)n1 [Example 134] ?
Found: 8.15

Lookup: Also Cn1ccc(-c2cc(C(=O)Nc3cnc(CNC(=O)CO)nc3-c3ccccc3)ccc2C(F)(F)F)n1 [Example 50] ?
Found: 8.44

Lookup: Also Cn1ccc(-c2cc(C(=O)Nc3cc(-c4ccc(C(=O)O)cn4)cnc3-c3ccccc3)c(F)cc2C(F)(F)F)n1 [Example 171] ?
Found: 8.00

Lookup: Also Cn1ccc(-c2cc(C(=O)Nc3cnc(CN4CCOCC4=O)nc3-c3ccccc3)c(F)cc2C(F)(F)F)n1 [Example 223] ?
Found: 8.80

Lookup: Also Cn1ccc(-c2cc(C(=O)Nc3cnc(CS(C)(=O)=O)nc3-c3ccccc3)c(F)cc2C(F)(F)F)n1 [Example 199] ?
Found: 8.40

Lookup: Also Cn1ccc(-c2cc(C(=O)Nc3cnc(CN4C[C@@H](O)[C@@H](O)C4)nc3-c3ccccc3)c(F)cc2C(F)(F)F)n1 [Example 184] ?
Found: 8.39

Lookup: Also Cc1cc(-c2ccccc2)c(NC(=O)c2ccc(C(F)(F)F)c(-c3cc[nH]n3)c2)cn1 [Example 5] ?
Found: 7.85

Lookup: Also Cc1cc(-c2ccccc2)c(NC(=O)c2ccc(OC(F)(F)F)c(-c3ccn(C)n3)c2)cn1 [Example 3] ?
Found: 7.27

Lookup: Also Cn1ccc(-c2cc(C(=O)Nc3cnc(CC(N)=O)cc3-c3ccccc3)c(F)cc2C(F)(F)F)n1 [Example 101] ?
Found: 8.96

Lookup: Also Cn1ccc(-c2cc(C(=O)Nc3cc(S(C)(=O)=O)cnc3-c3ccccc3)c(F)cc2C(F)(F)F)n1 [Example 194] ?
Found: 8.59

Lookup: Also CN(Cc1ccc(NC(=O)c2cc(-c3ccn(C)n3)c(C(F)(F)F)cc2F)c(-c2ccccc2)n1)C(N)=O [Example 78] ?
Found: 8.96

Lookup: Also Cn1ccc(-c2cc(C(=O)Nc3cc4c(nc3-c3ccccc3)CCNC4)c(F)cc2C(F)(F)F)n1 [Example 145] ?
Found: 8.54

Lookup: Also Cc1ncc(NC(=O)c2cc(-c3ccn(C)n3)c(C(F)(F)F)cc2F)c(-c2ccccc2CO)n1 [Example 136] ?
Found: 8.36

Lookup: Also Cc1nc(C)c(NC(=O)c2ccc(C(F)(F)F)c(-c3ccn(C)n3)c2)c(-c2ccccc2)n1 [Example 26] ?
Found: 6.68

Lookup: Also Cn1ccc(-c2cc(C(=O)Nc3ncccc3-c3ccccc3)ccc2C(F)(F)F)n1 [Example 22] ?
Found: 7.19

Lookup: Also Cn1ccc(-c2cc(C(=O)Nc3ncc(CC(N)=O)nc3-c3ccccc3)c(F)cc2C(F)(F)F)n1 [Example 120] ?
Found: 8.06

Lookup: Also O=C(NCc1cccnc1)c1cnc(-c2ccccc2)c(NC(=O)c2cc(-c3ncccn3)c(C(F)(F)F)cc2F)c1 [Example 92] ?
Found: 8.66

Lookup: Also Cn1ccc(-c2cc(C(=O)Nc3ncc(CNC(=O)CO)nc3-c3ccccc3)c(F)cc2C(F)(F)F)n1 [Example 65] ?
Found: 8.48

Lookup: Also CC(=O)NCc1cnc(-c2cnc(-c3ccccc3)c(NC(=O)c3cc(-c4ncccn4)c(C(F)(F)F)cc3F)c2)nc1 [Example 170] ?
Found: 7.80

Lookup: Also Cc1noc(-c2cc(C(=O)Nc3cnc(C)nc3-c3ccccc3)ccc2C(F)(F)F)n1 [Example 30] ?
Found: 6.89

Lookup: Also Cn1ccc(-c2cc(C(=O)Nc3cnc4c(c3-c3ccccc3)CN(C(=O)CO)CC4)ccc2C(F)(F)F)n1 [Example 160] ?
Found: 8.33

Lookup: Also Cn1ccc(-c2cc(C(=O)Nc3cnc(CN4C(=O)CCC4=O)nc3-c3ccccc3)c(F)cc2C(F)(F)F)n1 [Example 187] ?
Found: 9.17

Lookup: Also Cn1ccc(-c2cc(C(=O)Nc3cnc(CNC(=O)CO)nc3-c3ccccc3)c(F)cc2C(F)(F)F)n1 [Example 52] ?
Found: 8.80

Lookup: Also Cn1ccc(-c2cc(C(=O)Nc3cnc(CC(=O)N4CCOCC4)nc3-c3ccccc3)c(F)cc2C(F)(F)F)n1 [Example 111] ?
Found: 8.04

Lookup: Also CC(=O)N1CC(c2ccc(NC(=O)c3cc(-c4ccn(C)n4)c(C(F)(F)F)cc3F)c(-c3ccccc3)n2)C1 [Example 208] ?
Found: 8.52
